System: Plasmodium falciparum
TEST_DETAILS: microbe, parasite or virus in culture
DETAILS: TM91C235
Description: Antimalarial activity against multidrug-resistant Plasmodium falciparum TM91C235
pIC50: −log10 of the molar value.
pIC50: recorded values
QUANTITY_KIND: pIC50

In [3]: df
Out[3]:
                            chemical_smiles  data_value
0         COC(=O)C1CCC2(CC1)OOC1(CCCCC1)OO2        7.57
1  CC(=O)O[C@H]1C[C@H]2[C@@H]([C@H](OC(C)=O)C[C@@H]3CC4(CC[C@@]32C)OOC2(CCCCC2)OO4)[C@@H]2CC[C@H]([C@H](C)CCCO)[C@@]12C        7.74
2              NCC1CCC2(CC1)OOC1(CCCCC1)OO2        7.70

---

System: Plasmodium falciparum
TEST_DETAILS: microbe, parasite or virus in culture
DETAILS: TM91C235

COMPOUND	UNIT_OF_MEASURE	IC90
CC(=O)O[C@H]1C[C@H]2[C@@H]([C@H](OC(C)=O)C[C@@H]3CC4(CC[C@@]32C)OOC2(CCCCC2)OO4)[C@@H]2CC[C@H]([C@H](C)CCCN=[N+]=[N-])[C@@]12C	nM	20.6
OCC1CCC2(CC1)OOC1(CCCCC1)OO2	nM	23.7
C1CCC(NCC2CCC3(CC2)OOC2(CCCCC2)OO3)CC1	nM	13.9
CCN(CC)CCCC(C)Nc1ccnc2cc(Cl)ccc12 (centres undefined)	nM	345

---

Test system: Plasmodium falciparum
TEST_DETAILS: microbe, parasite or virus in culture
DETAILS: TM91C235
Measured IC50 by item
QUANTITY_KIND: IC50 (nM)

CHEMICAL_SMILES	SYSTEM_TESTED	UNIT_OF_MEASURE	DATA_VALUE
CN(C)CCNC(=O)C1CCC2(CC1)OOC1(CCCCC1)OO2	Plasmodium falciparum	nM	7.24
C1CCC(NCC2CCC3(CC2)OOC2(CCCCC2)OO3)CC1	Plasmodium falciparum	nM	10.8
O=C(O)C1CCC2(CC1)OOC1(CCCCC1)OO2	Plasmodium falciparum	nM	411
c1ccc(CNCC2CCC3(CC2)OOC2(CCCCC2)OO3)cc1	Plasmodium falciparum	nM	13.9
C[C@H](CCCO)[C@H]1CC[C@H]2[C@@H]3[C@H](O)C[C@@H]4CC5(CC[C@]4(C)[C@H]3C[C@H](O)[C@]12C)OOC1(CCCCC1)OO5	Plasmodium falciparum	nM	166
OCC1CCC2(CC1)OOC1(CCCCC1)OO2	Plasmodium falciparum	nM	12.6
CC(C)NCC1CCC2(CC1)OOC1(CCCCC1)OO2	Plasmodium falciparum	nM	9.27
CCCNCCC[C@@H](C)[C@H]1CC[C@H]2[C@@H]3[C@H](OC(C)=O)C[C@@H]4CC5(CC[C@]4(C)[C@H]3C[C@H](OC(C)=O)[C@]12C)OOC1(CCCCC1)OO5	Plasmodium falciparum	nM	20.8
CCCNC(=O)C1CCC2(CC1)OOC1(CCCCC1)OO2	Plasmodium falciparum	nM	25.3
O[C@@H](c1cc(C(F)(F)F)nc2c(C(F)(F)F)cccc12)[C@H]1CCCCN1	Plasmodium falciparum	nM	22.4
C[C@@H]1CC[C@H]2[C@@H](C)C(=O)O[C@@H]3O[C@@]4(C)CC[C@@H]1[C@]32OO4	Plasmodium falciparum	nM	13
CC(=O)OCCC[C@@H](C)[C@H]1CC[C@H]2[C@@H]3[C@H](OC(C)=O)C[C@@H]4CC5(CC[C@]4(C)[C@H]3C[C@H](OC(C)=O)[C@]12C)OOC1(CCCCC1)OO5	Plasmodium falciparum	nM	19.2
CC(=O)O[C@H]1C[C@H]2[C@@H]([C@H](OC(C)=O)C[C@@H]3CC4(CC[C@@]32C)OOC2(CCCCC2)OO4)[C@@H]2CC[C@H]([C@H](C)CCCN=[N+]=[N-])[C@@]12C	Plasmodium falciparum	nM	13.9
NC(=O)C1CCC2(CC1)OOC1(CCCCC1)OO2	Plasmodium falciparum	nM	27.2
CC(=O)O[C@H]1C[C@H]2[C@@H]([C@H](OC(C)=O)C[C@@H]3CC4(CC[C@@]32C)OOC2(CCCCC2)OO4)[C@@H]2CC[C@H]([C@H](C)CCCNCCN(C)C)[C@@]12C	Plasmodium falciparum	nM	49.7

---

System: Plasmodium falciparum
TEST_DETAILS: microbe, parasite or virus in culture
DETAILS: D6
Description: Antimalarial activity against Plasmodium falciparum D6
QUANTITY_KIND: IC90 (nM)

CHEMICAL_SMILES	UNIT_OF_MEASURE	DATA_VALUE
C[C@@H]1CC[C@H]2[C@@H](C)C(=O)O[C@@H]3O[C@@]4(C)CC[C@@H]1[C@]32OO4	nM	12.8
O[C@@H](c1cc(C(F)(F)F)nc2c(C(F)(F)F)cccc12)[C@H]1CCCCN1	nM	19.5
CC(=O)O[C@H]1C[C@H]2[C@@H]([C@H](OC(C)=O)C[C@@H]3CC4(CC[C@@]32C)OOC2(CCCCC2)OO4)[C@@H]2CC[C@H]([C@H](C)CCCO)[C@@]12C	nM	28.7
NC(=O)C1CCC2(CC1)OOC1(CCCCC1)OO2	nM	42.8
NCC1CCC2(CC1)OOC1(CCCCC1)OO2	nM	24.1
CCCNCCC[C@@H](C)[C@H]1CC[C@H]2[C@@H]3[C@H](OC(C)=O)C[C@@H]4CC5(CC[C@]4(C)[C@H]3C[C@H](OC(C)=O)[C@]12C)OOC1(CCCCC1)OO5	nM	49.3
CC(C)NCC1CCC2(CC1)OOC1(CCCCC1)OO2	nM	14.5
CC(=O)O[C@H]1C[C@H]2[C@@H]([C@H](OC(C)=O)C[C@@H]3CC4(CC[C@@]32C)OOC2(CCCCC2)OO4)[C@@H]2CC[C@H]([C@H](C)CCCN=[N+]=[N-])[C@@]12C	nM	13.3
CCCNC(=O)C1CCC2(CC1)OOC1(CCCCC1)OO2	nM	49.2
CN(C)CCNC(=O)C1CCC2(CC1)OOC1(CCCCC1)OO2	nM	15.1
C1CCC(NCC2CCC3(CC2)OOC2(CCCCC2)OO3)CC1	nM	14
CC(=O)O[C@H]1C[C@H]2[C@@H]([C@H](OC(C)=O)C[C@@H]3CC4(CC[C@@]32C)OOC2(CCCCC2)OO4)[C@@H]2CC[C@H]([C@H](C)CCCNCCN(C)C)[C@@]12C	nM	110
COC(=O)C1CCC2(CC1)OOC1(CCCCC1)OO2	nM	83.9
C[C@H](CCCO)[C@H]1CC[C@H]2[C@@H]3[C@H](O)C[C@@H]4CC5(CC[C@]4(C)[C@H]3C[C@H](O)[C@]12C)OOC1(CCCCC1)OO5	nM	623
O=C(O)C1CCC2(CC1)OOC1(CCCCC1)OO2	nM	467
c1ccc(CNCC2CCC3(CC2)OOC2(CCCCC2)OO3)cc1	nM	34.5

---

Test system: Plasmodium falciparum
TEST_DETAILS: microbe, parasite or virus in culture
DETAILS: TM91C235
Just a reminder that ties go to 0: only IC90 strictly below 30 nM counts as 1.

In [3]: df
Out[3]:
                            chemical_smiles          system_tested  label
0   c1ccc(CNCC2CCC3(CC2)OOC2(CCCCC2)OO3)cc1  Plasmodium falciparum      0
1         CC(C)NCC1CCC2(CC1)OOC1(CCCCC1)OO2  Plasmodium falciparum      1
2  CC(=O)O[C@H]1C[C@H]2[C@@H]([C@H](OC(C)=O)C[C@@H]3CC4(CC[C@@]32C)OOC2(CCCCC2)OO4)[C@@H]2CC[C@H]([C@H](C)CCCO)[C@@]12C  Plasmodium falciparum      1
3  C[C@H](CCCO)[C@H]1CC[C@H]2[C@@H]3[C@H](O)C[C@@H]4CC5(CC[C@]4(C)[C@H]3C[C@H](O)[C@]12C)OOC1(CCCCC1)OO5  Plasmodium falciparum      0
4  CCCNCCC[C@@H](C)[C@H]1CC[C@H]2[C@@H]3[C@H](OC(C)=O)C[C@@H]4CC5(CC[C@]4(C)[C@H]3C[C@H](OC(C)=O)[C@]12C)OOC1(CCCCC1)OO5  Plasmodium falciparum      0
5              NCC1CCC2(CC1)OOC1(CCCCC1)OO2  Plasmodium falciparum      1
6          NC(=O)C1CCC2(CC1)OOC1(CCCCC1)OO2  Plasmodium falciparum      0
7       CCCNC(=O)C1CCC2(CC1)OOC1(CCCCC1)OO2  Plasmodium falciparum      0
